Reported inhibition zone (IZ) values are given for each entry in this list.
Test system: Aspergillus flavus
Experiment summary: Antifungal activity against Aspergillus flavus at 10 to 50 ug/ml after 3 to 4 days by serial plate dilution method
Format: functional
Enter your answer as a number in mm; do not include the unit.

In the examples that follow, each entry is paired with its recorded inhibition zone (IZ).
O=C1NN=C(COc2ccccc2)C1Oc1ccccc1 (stereo not drawn)    20
CC(C)CC1=NN(c2ccc(F)cc2)C(=O)C1Sc1ccccc1 (stereo not drawn)    20
CCC1=NNC(=O)C1Oc1ccccc1 (stereo not drawn)    21
CC(C)CC1=NNC(=O)C1Sc1ccccc1 (stereo not drawn)    18
CC(C)C1=NNC(=O)C1Sc1ccccc1 (stereo not drawn)    18
CCC1=NN(c2ccc(F)cc2)C(=O)C1Oc1ccccc1 (stereo not drawn)    19
Cc1cc(C2CCCCC2)n(O)c(=O)c1.NCCO    27
CC(C)CC1=NN(C)C(=O)C1Oc1ccccc1 (stereo not drawn)    18

Noted for CCC1=NNC(=O)C1SCc1ccccc1 (stereo not drawn) : its inhibition zone (IZ) reads 17

// sample CC1=NNC(=O)C1Sc1ccccc1 (stereo not drawn) , its inhibition zone (IZ) was 16

GET /value?item= CC1=NNC(=O)C1OCc1cccc(Br)c1 (stereo not drawn) &field=inhibition zone (IZ) returns 19

* * *

Tested on: Klebsiella sp.
Experiment summary: Antibacterial activity against Klebsiella sp. after 24 hrs by disk diffusion method
Type: functional
Study conditions: Klebsiella sp., 24 h
// reported MIC for each item listed
Numeric only. Scale: µg/mL

Some molecules with recorded MIC:
CC1=NNC(=O)C1Sc1ccccc1 (stereo not given)    6.25
COCC1=NNC(=O)C1SCc1ccccc1 (stereo not given)    50
CC1=NNC(=O)C1OCc1cccc(Br)c1 (stereo not given)    6.25
CCC1=NNC(=O)C1Oc1ccccc1 (stereo not given)    6.25

Continue with the molecule presented below.
Value of measured MIC for the entry CC(C)CC1=NN(c2ccc(F)cc2)C(=O)C1Sc1ccccc1 (stereo not given) : 6.25

* * *

Tested on: Talaromyces marneffei
Experiment summary: Antifungal activity against Penicillium marneffei after 3 to 4 days by serial plate dilution method
Type: functional
Metric name: MIC (µg/mL)
Your answer should be a plain number; it is taken to be in µg/mL.

Answered examples (4):
Cc1cc(C2CCCCC2)n(O)c(=O)c1.NCCO    6.25
CC(C)CC1=NN(c2ccc(F)cc2)C(=O)C1Sc1ccccc1 (stereo not given)    6.25
CC(C)CC1=NN(C)C(=O)C1Oc1ccccc1 (stereo not given)    6.25
COCC1=NNC(=O)C1SCc1ccccc1 (stereo not given)    50

So, CC1=NNC(=O)C1Sc1ccccc1 (stereo not given) ? Its MIC was 6.25

Value of MIC reported for the molecule CC(C)(C)C1=NNC(=O)C1Oc1ccccc1 (stereo not given) is 6.25

Sure, the documented MIC for CC(C)C1=NNC(=O)C1Sc1ccccc1 (stereo not given) is 6.25

// MIC lookup, molecule = CCC1=NNC(=O)C1SCc1ccccc1 (stereo not given) , result: 6.25

// MIC lookup, molecule = CC(C)CC1=NNC(=O)C1Sc1ccccc1 (stereo not given) , result: 6.25

GET /value?item= COc1ccc(OC2C(=O)NN=C2C)cc1 (stereo not given) &field=MIC returns 50

* * *

Test system: Escherichia coli
Experiment summary: Antibacterial activity against Escherichia coli ATTC 25922 after 24 hrs by disk diffusion method
Type: functional
Study conditions: Escherichia coli, ATTC 25922, 24 h
Recorded MIC values for a group of molecules are listed next.
Give the number; µg/mL is assumed, so skip it.

Worked set:
O=C(O)c1cn(C2CC2)c2cc(N3CCNCC3)c(F)cc2c1=O [CIPROFLOXACIN]    6.25
COCC1=NNC(=O)C1SCc1ccccc1 (stereo unspecified)    50
CCC1=NN(c2ccc(F)cc2)C(=O)C1Oc1ccccc1 (stereo unspecified)    25
COCC1=NNC(=O)C1Oc1ccccc1 (stereo unspecified)    25
CC(C)CC1=NN(c2ccc(F)cc2)C(=O)C1Sc1ccccc1 (stereo unspecified)    25
CC(C)(C)C1=NNC(=O)C1Oc1ccccc1 (stereo unspecified)    6.25

The molecule listed as CCC1=NNC(=O)C1SCc1ccccc1 (stereo unspecified) has a reported MIC of 6.25

According to the records, this molecule CC(C)CC1=NNC(=O)C1Sc1ccc(Cl)cc1 (stereo unspecified) displays MIC of 25

MIC recorded for this molecule, CC1=NNC(=O)C1OCc1cccc(Br)c1 (stereo unspecified) , is 25

Just so you know, measured MIC for CCC1=NNC(=O)C1Oc1ccccc1 (stereo unspecified) came out at 6.25

Summary for this molecule, COc1ccc(OC2C(=O)NN=C2C)cc1 (stereo unspecified) : MIC is 25

* * *

Tested on: Pseudomonas aeruginosa
Experiment summary: Antibacterial activity against Pseudomonas aeruginosa ATTC 27853 after 24 hrs by disk diffusion method
Format: functional
Metric name: inhibition zone (IZ) (mm)
Give a bare numeral; the unit mm is implied.

// inhibition zone (IZ) lookup, molecule = CC(C)C1=NNC(=O)C1Sc1ccccc1 (stereo not drawn) , result: 17

inhibition zone (IZ) reported for this molecule COCC1=NNC(=O)C1Oc1ccccc1 (stereo not drawn) : 17

// CCC1=NN(c2ccc(F)cc2)C(=O)C1Oc1ccccc1 (stereo not drawn) : inhibition zone (IZ) value = 18

Sample CC(C)CC1=NNC(=O)C1Sc1ccccc1 (stereo not drawn) ; inhibition zone (IZ) observed: 18

Entry under test: CC(C)CC1=NN(c2ccc(F)cc2)C(=O)C1Sc1ccccc1 (stereo not drawn) . Its inhibition zone (IZ) was 20

* * *

Tested on: Aspergillus fumigatus
Experiment summary: Antifungal activity against Aspergillus fumigatus at 10 to 50 ug/ml after 3 to 4 days by serial plate dilution method
Format: functional
Documented inhibition zone (IZ) across a set of compounds
Express it in mm; write the number only.

CC(C)C1=NNC(=O)C1Sc1ccccc1 (stereo unspecified)    20
COCC1=NNC(=O)C1Oc1ccccc1 (stereo unspecified)    20
CCC1=NN(c2ccc(F)cc2)C(=O)C1Oc1ccccc1 (stereo unspecified)    21

Sample CC(C)CC1=NNC(=O)C1Sc1ccccc1 (stereo unspecified) ; inhibition zone (IZ) observed: 18

Record summary for CC1=NNC(=O)C1Sc1ccccc1 (stereo unspecified) : reported inhibition zone (IZ) = 17

So for CC1=NNC(=O)C1OCc1cccc(Br)c1 (stereo unspecified) , the logged inhibition zone (IZ) turned out to be 18

* * *

Test system: Pseudomonas aeruginosa
Experiment summary: Antibacterial activity against Pseudomonas aeruginosa ATTC 27853 after 24 hrs by disk diffusion method
Format: functional
Metric name: inhibition zone (IZ)

Item COc1ccc(OC2C(=O)NN=C2C)cc1 (stereo not drawn) was tested on Pseudomonas aeruginosa; the reported inhibition zone (IZ) is <10 mm

Here O=C1NN=C(c2ccc(Cl)cc2)C1Oc1ccccc1 (stereo not drawn) was tested on Pseudomonas aeruginosa, and its inhibition zone (IZ) came to <10 mm

Query COCC1=NNC(=O)C1SCc1ccccc1 (stereo not drawn) on Pseudomonas aeruginosa; inhibition zone (IZ) returned: <10 mm

Each recorded value in this set is attributed to ChEMBL document CHEMBL1154152.
